# Test system: 266 human PDZ domains (PDZome)
# ASSAY_TEXT: Holdup assay (chromatographic retention, PDZome-binding profile, BI)
# Design: key: binding intensity: 0.00 = no binding, 1.00 = maximal binding
# CONDITION_INFO: PDZ domain PTPN13-1
*1 amine or outer side, *2 acyl side, *3 side chain or, on linkers, in order; H or OH if unused. Where a SMILES comes first, the peptide text is derived from it. The star is where a group is joined. X1 = O=C(CCCC[C@@H]1SC[C@@H]2NC(=O)N[C@@H]21)NCCCOCCOCCOCCCN*; Suc = O=C(CCC(=O)[*:2])[*:1]
REPORTED_ENDPOINT: BI
Lab note: write the figure by itself, no unit.

CC[C@H](C)[C@H](NC(=O)[C@H](CCC(N)=O)NC(=O)[C@@H](NC(=O)[C@H](Cc1c[nH]cn1)NC(=O)[C@H](CCC(N)=O)NC(=O)[C@H](CC(=O)O)NC(=O)[C@H](CCC(=O)O)NC(=O)[C@H](CC(=O)O)NC(=O)CCC(=O)NCCCOCCOCCOCCCNC(=O)CCCC[C@@H]1SC[C@@H]2NC(=O)N[C@@H]21)[C@@H](C)O)C(=O)N[C@H](C(=O)N[C@@H](CCCCN)C(=O)N[C@H](C(=O)O)C(C)C)[C@@H](C)O    0.143
CC[C@H](C)[C@H](NC(=O)[C@H](CCC(N)=O)NC(=O)[C@@H](NC(=O)[C@H](Cc1c[nH]cn1)NC(=O)[C@H](CCC(N)=O)NC(=O)[C@H](CC(=O)O)NC(=O)[C@H](CCC(=O)O)NC(=O)[C@H](CC(=O)O)NC(=O)CCC(=O)NCCCOCCOCCOCCCNC(=O)CCCC[C@@H]1SC[C@@H]2NC(=O)N[C@@H]21)[C@@H](C)O)C(=O)N[C@H](C(=O)N[C@@H](CCCNC(=N)N)C(=O)N[C@H](C(=O)O)C(C)C)[C@@H](C)O [PTEN_KR] ({X1-Suc}-DEDQHTQITRV-OH)    -0.017

# next compound below
## Task Tell me the measured BI of CC[C@H](C)[C@H](NC(=O)[C@H](CCC(N)=O)NC(=O)[C@@H](NC(=O)[C@H](Cc1c[nH]cn1)NC(=O)[C@H](CCC(N)=O)NC(=O)[C@H](CC(=O)O)NC(=O)[C@H](CCC(=O)O)NC(=O)[C@H](CC(=O)O)NC(=O)CCC(=O)NCCCOCCOCCOCCCNC(=O)CCCC[C@@H]1SC[C@@H]2NC(=O)N[C@@H]21)[C@@H](C)O)C(=O)N[C@H](C(=O)N[C@@H](CCCCNC(C)=O)C(=O)N[C@H](C(=O)O)C(C)C)[C@@H](C)O , please.
## Result -0.024

###

# Tested on: 266 human PDZ domains (PDZome)
# ASSAY_TEXT: Holdup assay (chromatographic retention, PDZome-binding profile, BI)
# Parameters: key: binding intensity: 0.00 = no binding, 1.00 = maximal binding
# CONDITION_INFO: PDZ domain PDLIM3-1
*1 amine or outer side, *2 acyl side, *3 side chain or, on linkers, in order; H or OH if unused. Where a SMILES comes first, the peptide text is derived from it. The star is where a group is joined. X1 = O=C(CCCC[C@@H]1SC[C@@H]2NC(=O)N[C@@H]21)NCCCOCCOCCOCCCN*; Suc = O=C(CCC(=O)[*:2])[*:1]
REPORTED_ENDPOINT: BI
Lab note: write the figure by itself, no unit.

Answered examples (2):
CC[C@H](C)[C@H](NC(=O)[C@H](CCC(N)=O)NC(=O)[C@@H](NC(=O)[C@H](Cc1c[nH]cn1)NC(=O)[C@H](CCC(N)=O)NC(=O)[C@H](CC(=O)O)NC(=O)[C@H](CCC(=O)O)NC(=O)[C@H](CC(=O)O)NC(=O)[C@H](Cc1ccccc1)NC(=O)[C@@H]1CCCN1C(=O)CCC(=O)NCCCOCCOCCOCCCNC(=O)CCCC[C@@H]1SC[C@@H]2NC(=O)N[C@@H]21)[C@@H](C)O)C(=O)N[C@H](C(=O)N[C@@H](CCCCN)C(=O)N[C@H](C(=O)O)C(C)C)[C@@H](C)O [PTEN_13] ({X1-Suc}-PFDEDQHTQITKV-OH)    0.139
CC[C@H](C)[C@H](NC(=O)[C@H](CCC(N)=O)NC(=O)[C@@H](NC(=O)[C@H](Cc1c[nH]cn1)NC(=O)[C@H](CCC(N)=O)NC(=O)[C@H](CC(=O)O)NC(=O)[C@H](CCC(=O)O)NC(=O)[C@H](CC(=O)O)NC(=O)CCC(=O)NCCCOCCOCCOCCCNC(=O)CCCC[C@@H]1SC[C@@H]2NC(=O)N[C@@H]21)[C@@H](C)O)C(=O)N[C@H](C(=O)N[C@@H](CCCCNC(C)=O)C(=O)N[C@H](C(=O)O)C(C)C)[C@@H](C)O [PTEN_Ac]    -0.026

## Task Tell me the measured BI of CC[C@H](C)[C@H](NC(=O)[C@H](CCC(N)=O)NC(=O)[C@@H](NC(=O)[C@H](Cc1c[nH]cn1)NC(=O)[C@H](CCC(N)=O)NC(=O)[C@H](CC(=O)O)NC(=O)[C@H](CCC(=O)O)NC(=O)[C@H](CC(=O)O)NC(=O)CCC(=O)NCCCOCCOCCOCCCNC(=O)CCCC[C@@H]1SC[C@@H]2NC(=O)N[C@@H]21)[C@@H](C)O)C(=O)N[C@H](C(=O)N[C@@H](CCCCN)C(=O)N[C@H](C(=O)O)C(C)C)[C@@H](C)O [PTEN_11] , please.
## Result -0.059

## Task Entry CC[C@H](C)[C@H](NC(=O)[C@H](CCC(N)=O)NC(=O)[C@@H](NC(=O)[C@H](Cc1c[nH]cn1)NC(=O)[C@H](CCC(N)=O)NC(=O)[C@H](CC(=O)O)NC(=O)[C@H](CCC(=O)O)NC(=O)[C@H](CC(=O)O)NC(=O)CCC(=O)NCCCOCCOCCOCCCNC(=O)CCCC[C@@H]1SC[C@@H]2NC(=O)N[C@@H]21)[C@@H](C)O)C(=O)N[C@H](C(=O)N[C@@H](CCCNC(=N)N)C(=O)N[C@H](C(=O)O)C(C)C)[C@@H](C)O [PTEN_KR] ({X1-Suc}-DEDQHTQITRV-OH) please
## Result -0.065

###

Reported BI values for the following compounds.
# Test system: LIN7C-1
# ASSAY_TEXT: Holdup assay, LIN7C-1
# Type: binding, human
*1 amine or outer side, *2 acyl side, *3 side chain or, on linkers, in order; H or OH if unused. Where a SMILES comes first, the peptide text is derived from it. The star is where a group is joined. X1 = O=C(CCCC[C@@H]1SC[C@@H]2NC(=O)N[C@@H]21)NCCCOCCOCCOCCCN*; Suc = O=C(CCC(=O)[*:2])[*:1]

CC[C@H](C)[C@H](NC(=O)[C@H](CCC(N)=O)NC(=O)[C@@H](NC(=O)[C@H](Cc1c[nH]cn1)NC(=O)[C@H](CCC(N)=O)NC(=O)[C@H](CC(=O)O)NC(=O)[C@H](CCC(=O)O)NC(=O)[C@H](CC(=O)O)NC(=O)CCC(=O)NCCCOCCOCCOCCCNC(=O)CCCC[C@@H]1SC[C@@H]2NC(=O)N[C@@H]21)[C@@H](C)O)C(=O)N[C@H](C(=O)N[C@@H](CCCNC(=N)N)C(=O)N[C@H](C(=O)O)C(C)C)[C@@H](C)O [PTEN_KR] ({X1-Suc}-DEDQHTQITRV-OH)    -0.071
CC[C@H](C)[C@H](NC(=O)[C@H](CCC(N)=O)NC(=O)[C@@H](NC(=O)[C@H](Cc1c[nH]cn1)NC(=O)[C@H](CCC(N)=O)NC(=O)[C@H](CC(=O)O)NC(=O)[C@H](CCC(=O)O)NC(=O)[C@H](CC(=O)O)NC(=O)[C@H](Cc1ccccc1)NC(=O)[C@@H]1CCCN1C(=O)CCC(=O)NCCCOCCOCCOCCCNC(=O)CCCC[C@@H]1SC[C@@H]2NC(=O)N[C@@H]21)[C@@H](C)O)C(=O)N[C@H](C(=O)N[C@@H](CCCCN)C(=O)N[C@H](C(=O)O)C(C)C)[C@@H](C)O [PTEN_13] ({X1-Suc}-PFDEDQHTQITKV-OH)    -0.105
CC[C@H](C)[C@H](NC(=O)[C@H](CCC(N)=O)NC(=O)[C@@H](NC(=O)[C@H](Cc1c[nH]cn1)NC(=O)[C@H](CCC(N)=O)NC(=O)[C@H](CC(=O)O)NC(=O)[C@H](CCC(=O)O)NC(=O)[C@H](CC(=O)O)NC(=O)CCC(=O)NCCCOCCOCCOCCCNC(=O)CCCC[C@@H]1SC[C@@H]2NC(=O)N[C@@H]21)[C@@H](C)O)C(=O)N[C@H](C(=O)N[C@@H](CCCCN)C(=O)N[C@H](C(=O)O)C(C)C)[C@@H](C)O    -0.041

# next compound below
## Task Request - read-out BI | tested on LIN7C-1 | compound CC[C@H](C)[C@H](NC(=O)[C@H](CCC(N)=O)NC(=O)[C@@H](NC(=O)[C@H](Cc1c[nH]cn1)NC(=O)[C@H](CCC(N)=O)NC(=O)[C@H](CC(=O)O)NC(=O)[C@H](CCC(=O)O)NC(=O)[C@H](CC(=O)O)NC(=O)CCC(=O)NCCCOCCOCCOCCCNC(=O)CCCC[C@@H]1SC[C@@H]2NC(=O)N[C@@H]21)[C@@H](C)O)C(=O)N[C@H](C(=O)N[C@@H](CCCCNC(C)=O)C(=O)N[C@H](C(=O)O)C(C)C)[C@@H](C)O
## Result 0.012
